procedure.text: Safety ratio is cytotoxicity to KB cells/IC50 K1
Format: toxicity, cell-based
condition.context: human, KB cells (epidermoid carcinoma); read-out: Safety ratio
value.type: selectivity ratio
// print number alone

Task item: Look up selectivity ratio: "COc1cc(Cc2cnc(N)nc2N)ccc1OCCCc1ccccc1"
Reply: 6

----------
Test system: Plasmodium falciparum
procedure.text: In vitro antiplasmodial activity (IC50) against Plasmodium falciparum wtTM4/8.2
Format: functional, organism-based
Reported log10 IC50 by item:
Lab note - IC50 converted to log10 from values in nM.

Task item: # value lookup — system Plasmodium falciparum, readout log10 IC50, item "COc1ccc(CCCc2nc(N)nc(N)c2-c2cccc(Cl)c2)cc1"
Reply: 2.60

Task item: # value lookup — system Plasmodium falciparum, readout log10 IC50, item "Cc1nc(N)nc(N)c1-c1ccccc1"
Reply: 3.87

Task item: # value lookup — system Plasmodium falciparum, readout log10 IC50, item "CCc1nc(N)nc(N)c1-c1ccc2c(c1)OCO2"
Reply: 2.60

The reported measurements were obtained from ChEMBL document CHEMBL1135602.
